Listing of entries alongside the reported GI50.
Tested on: SK-MEL-2
Assay: NCI tumour cell line growth inhibition, 48 h
The source made the active and inactive calls. Rule as the data show it: active = GI50 up to about 1.1 µM and inactive = higher.

Worked set:
{"columns": ["compound", "study.system", "GI50"],
 "data": [
  ["O=C(c1ccccc1)c1ccc(N2C(=O)/C(=C/c3ccccc3S)N=C2c2ccccc2)c(N2C(=O)/C(=C/c3ccccc3S)N=C2c2ccccc2)c1", "SK-MEL-2", "22.7 µM (inactive)"],
  ["COC(=O)c1cc(C(=CCC[C@H]2CC[C@@]3(C)C(CCC4C3CC[C@@]3(C)C4CC[C@@H]3C(C)CCCC(C)C)C2)c2cc(Cl)c(O)c(C(=O)OC)c2)cc(Cl)c1O (some centres undefined)", "SK-MEL-2", "> 10 µM (inactive)"]
]}

# input for lookup
I'd like to know its GI50. The compound in question is COc1ccc(Cn2c(=O)c(OC)c(C)c3cc4ccccc4cc32)cc1
17.2 µM (inactive)

* * *

System: 786-0
Experiment: NCI tumour cell line growth inhibition, 48 h
Activity calls are given as the source filed them. Rule as the data show it: active = GI50 up to about 1.1 µM and inactive = higher. Starred links: 1 amine or outer side, 2 acyl side, 3 side chain; linkers in the order of their positions; H or OH if unused. Positions of bridges follow the written chain, without caps; N, C: chain ends. Non-standard residues stand in square brackets, D forms with d. Residues, ends and D or L forms follow the SMILES beside them. Chains are numbered I, II in the order given. Actinocin(1to9) = Cc1c2oc3c(C)ccc(C(=O)[*:2])c3nc-2c(C(=O)[*:1])c(N)c1=O; aThr = C[C@H](O)[C@H](N)C(=O)O; NMeV = CN[C@H](C(=O)O)C(C)C; Sar = CNCC(=O)O
Tick one outcome: active, inactive

{"columns": ["molecule", "study.system", "class.label"],
 "data": [
  ["O=C(/C=C1\\Nc2ccccc2C(=O)N1c1ccc(Cl)cc1)c1ccncc1", "786-0", "inactive"],
  ["Cc1c2oc3c(C)ccc(C(=O)N[C@@H]4C(=O)N[C@H](C(C)C)C(=O)N5CCC[C@H]5C(=O)N(C)CC(=O)N(C)[C@@H](C(C)C)C(=O)O[C@H]4C)c3nc-2c(C(=O)N[C@@H]2C(=O)N[C@H](C(C)C)C(=O)N3CCC[C@H]3C(=O)N(C)CC(=O)N(C)[C@@H](C(C)C)C(=O)O[C@H]2C)c(N)c1=O (I: [aThr][dV]P[Sar][NMeV] / II: [aThr][dV]P[Sar][NMeV]; ester I:1-I:C, II:1-II:C; linker I:N-II:N via Actinocin(1to9))", "786-0", "active"],
  ["CCOC(=O)c1c(N2CCOCC2)ncn(-c2cccc(Cl)c2)c1=O", "786-0", "inactive"],
  ["COc1cccc(C2CC(C)(N3CCCC3)Oc3cc4c(cc32)OCO4)c1O (configuration not stated)", "786-0", "inactive"],
  ["CC12CCC(CC1)C(C)(C)O2", "786-0", "inactive"]
]}

Write down the call the test reported for this molecule. Item: O=C(OCC1CO1)c1cccs1 (configuration not stated)
inactive

Write down the call the test reported for this molecule. Item: CC(=O)N(C(C)=O)n1c(Cc2ccc(Cl)cc2)n[nH]c1=O
inactive

* * *

Test system: DMS-114
Test: NCI tumour cell line growth inhibition, 48 h
Calls of active or inactive are those of the source. Cut-off read from the data, not from the text of the source: active = GI50 up to about 1.1 µM and inactive = higher. Starred links: 1 amine or outer side, 2 acyl side, 3 side chain; linkers in the order of their positions; H or OH if unused. Positions of bridges follow the written chain, without caps; N, C: chain ends. Non-standard residues stand in square brackets, D forms with d. Residues, ends and D or L forms follow the SMILES beside them. Chains are numbered I, II in the order given. Actinocin(1to9) = Cc1c2oc3c(C)ccc(C(=O)[*:2])c3nc-2c(C(=O)[*:1])c(N)c1=O; aThr = C[C@H](O)[C@H](N)C(=O)O; NMeV = CN[C@H](C(=O)O)C(C)C; Sar = CNCC(=O)O
Tick one outcome: active, inactive

Answered examples (3):
{"columns": ["molecule", "class.label"],
 "data": [
  ["CCOC(=O)c1nc2ccc([N+](=O)[O-])cc2c2c1CCO2", "inactive"],
  ["Cn1cnc([N+](=O)[O-])c1Sc1nc2ccccc2s1", "inactive"],
  ["COc1cc(/C=C\\c2ccc(O)cc2)cc(OC)c1OC", "inactive"]
]}

Write down the call the test reported for this molecule. Item: Cc1c2oc3c(C)ccc(C(=O)N[C@@H]4C(=O)N[C@H](C(C)C)C(=O)N5CCC[C@H]5C(=O)N(C)CC(=O)N(C)[C@@H](C(C)C)C(=O)O[C@H]4C)c3nc-2c(C(=O)N[C@@H]2C(=O)N[C@H](C(C)C)C(=O)N3CCC[C@H]3C(=O)N(C)CC(=O)N(C)[C@@H](C(C)C)C(=O)O[C@H]2C)c(N)c1=O (I: [aThr][dV]P[Sar][NMeV] / II: [aThr][dV]P[Sar][NMeV]; ester I:1-I:C, II:1-II:C; linker I:N-II:N via Actinocin(1to9))
active

Write down the call the test reported for this molecule. Item: c1ccc(-c2nnc(-c3nn(-c4ccccc4)c4nc5ccccc5nc34)o2)cc1
inactive

Write down the call the test reported for this molecule. Item: COC(=O)[C@@]12C3=NO[C@]1(C(=O)OC)C(O[Si](C)(C)C(C)(C)C)[C@H]1OC(C)(C)O[C@H]1[C@@H]2C(OCc1ccccc1)CC3 (stereo partly specified)
inactive
